assayed_system: CHO-XBP1 luciferase reporter, IRE1-XBP1 UPR activation
assay_notes: XBP1 luciferase reporter activation – CHO-XBP1 cells, luminescence, counter-screen for apoptotic UPR arm activators, dose response (AID 489040);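 note: reporter read after six hours of compound exposure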
Active and inactive are the calls of the source.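 Rule for the calls: active = mean half-maximal activating concentration from the dose-response fit at or below a set limit; inactive = the rest.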
measured_parameter: EC50

In the examples that follow, each entry is paired with its recorded EC50.
{"structure_smiles_string": "COc1cc2nc(=S)n3[nH]c(CCn4nc(C)cc4C)nc3c2cc1OC", "recorded_value": "> 80 µM (inactive)"}
{"structure_smiles_string": "COc1ccc(/C=C/c2ccc3cccc(O)c3n2)c(OC)c1OC", "recorded_value": "> 80 µM (inactive)"}
{"structure_smiles_string": "Cc1c(NC(=O)CSc2cccc3cccnc23)c(=O)n(-c2ccccc2)n1C", "recorded_value": "> 80 µM (inactive)"}
{"structure_smiles_string": "COc1cc(C(=O)Oc2c(CN3CCOCC3)cc(Cl)c3cccnc23)cc(OC)c1OC", "recorded_value": "> 80 µM (inactive)"}
{"structure_smiles_string": "CC(C)C(=O)N1CCN(c2ccc(NC(=O)c3ccc([N+](=O)[O-])o3)cc2)CC1", "recorded_value": "> 80 µM (inactive)"}

Record `CCOc1ccc2c(c1)C(=NNC(=O)c1ccncc1)c1cc(OCC)ccc1-2` , field EC50: > 80 µM (inactive)

Record `Cc1ccc2cccc(NS(=O)(=O)c3ccccc3)c2n1` , field EC50: > 80 µM (inactive)

Record `C=C1C(=O)C=C[C@]2(C)C[C@@H]3OC(=O)[C@](C)(O)[C@H]3C[C@@H]12` , field EC50: > 80 µM (inactive)
